Listing of recorded IC50 by entry.
Biological target: Bcl-2 protein (histag-Bcl-2, UniProtKB P10415) (Homo sapiens (Human), UniProt P10415)
Sequence (P10415 whole entry): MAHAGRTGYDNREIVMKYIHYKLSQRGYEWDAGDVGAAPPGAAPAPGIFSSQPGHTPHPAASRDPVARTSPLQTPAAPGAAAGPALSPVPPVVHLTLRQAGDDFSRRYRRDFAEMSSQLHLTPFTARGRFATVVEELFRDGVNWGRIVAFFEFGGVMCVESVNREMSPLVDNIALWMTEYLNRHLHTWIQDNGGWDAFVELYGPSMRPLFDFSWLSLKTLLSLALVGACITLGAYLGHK
Experiment: Inhibition of Bcl-2 by the fluorescence polarisation technique
Type: binding
Details: fluorescence polarisation test; incubation for 2 hours; read-out: IC50 (nM) Bcl-2 FP
Structures can show the parent of a compound that is named as a salt.
Write the value in nM as a bare number.

>  <COMPOUND>
C[C@@H]1Cc2ccccc2CN1C(=O)c1cc2c(cc1-c1cc(C(=O)N(C)c3ccc(O)cc3)c3n1CCCC3)CN(C(=O)COc1ccc(Cl)cc1)C2 [Example 49]

>  <IC50 [nM]>
23

$$$$
>  <COMPOUND>
CN(C(=O)c1cc(-c2cc3c(cc2C(=O)N2Cc4ccccc4C[C@H]2CN2CCOCC2)CN(C(=O)NC(C)(C)C)C3)n2c1CCCC2)c1ccc(O)cc1 [Example 17, hydrochloride]

>  <IC50 [nM]>
91

$$$$

Continue with the compound presented below.
Short answer for Cc1c(C(=O)N(C)c2ccccc2)cc(-c2cc3c(cc2C(=O)N2Cc4ccccc4C[C@H]2C)CN(C(=O)Cc2ccc(C#N)cc2)CC3)n1C [Example 150] : IC50 was 4.3
